From: paper PMC5540273

Catalogue of %Inh readings, one per entry.
Test system: DCAMKL3
Construct: gene DCLK3
applied-conditions: concentration: 1 μM, replicates: in singlicate; n = 1;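 further: KINOMEscan kinase panel screen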
Please give a number only; it is taken to be in %.

These recorded examples may help you get a feel for the data.
Data request: // fetch %Inh; item: `CCCNC(=O)Nc1ccc(Oc2ncnc3ccn(C)c23)cc1` ; system: DCAMKL3
Data returned: 0

Data request: For DCAMKL3, give %Inh of the listed compound: `CCC(=O)c1c(-c2ccccc2)c2cc(Cl)ccc2c(=O)n1Cc1cc(C(=O)NC2CC2)n(C)n1`
Data returned: 0

Continuing:
Data request: Determine reported %Inh for `COc1ccc(-c2cc3c(C)nc(N)nc3n([C@H]3CC[C@H](OCCO)CC3)c2=O)cn1` ; test system: DCAMKL3.
Data returned: 0

Data request: Give %Inh for this entry on DCAMKL3: CCn1c(-c2ccoc2)nc2cnccc21 [SB-733887]
Data returned: 0

Data request: Provide %Inh, system DCAMKL3, entry `COC(=O)c1c(-c2ccccc2)c2cc(Br)ccc2c(=O)n1Cc1ccc(NC(=O)CCC(=O)O)cc1`
Data returned: 0

Data request: # return %Inh of Cl.c1ccc(Cn2cnc3cc(Nc4ncnc5ccccc45)ccc32)cc1 [GW272142] (system: DCAMKL3)
Data returned: 0

Data request: Using DCAMKL3 as the test system, report measured %Inh of COc1cc(Nc2nccc(N3CCC(NC(=O)C4COc5ccccc5O4)C3)n2)cc(OC)c1OC (stereo not drawn) [GSK1379761] .
Data returned: 0

* * *

Tested on: MTOR
applied-conditions: concentration: 1 μM, replicates: in singlicate; n = 1
parameter-measured: %Inh (%)
Field format: number, assumed %, no unit text.

Data request: Entry `Cl.NS(=O)(=O)c1cccc(Nc2cc(-c3ccc(F)cc3)n[nH]2)c1` needs its %Inh filled in; supply it.
Data returned: 39

Data request: Fill in %Inh for record `CN(C)c1cc(-c2ccc3c(N)n[nH]c3c2)nc(N)n1`
Data returned: 1

Data request: Give %Inh for the following compound: `Cc1nn2c(=O)cc(N3CCOCC3)nc2n1Cc1cccc(Cl)c1Cl`
Data returned: 45

Data request: Quick one: give measured %Inh for COc1cc(Nc2nccc(N3CCC(NC(=O)C(C)c4ccc(Cl)cc4)C3)n2)cc(OC)c1OC (centres unmarked)
Data returned: 36

Now consider the entry below.
Data request: Report measured %Inh; entry is `Cc1nnc(-c2ccc(C)c(-c3ccc(C(=O)O)cc3)c2)o1`
Data returned: 0

* * *

Here the recorded %Inh is given for each entry.
Tested on: CLK1
applied-conditions: concentration: 1 μM, replicates: in singlicate; n = 1
Quick note: give the figure in %, leave out the unit.

The following compounds have reported results that may help.
Data request: Respond only with %Inh recorded for `COc1ccc(-c2cc3c(C)nc(N)nc3n([C@H]3CC[C@H](O)CC3)c2=O)cn1`
Data returned: 0

Data request: For the compound `CCC(=O)c1c(-c2ccccc2)c2cc(Cl)ccc2c(=O)n1Cc1ccc(C(=O)O)cc1` , give its measured %Inh value.
Data returned: 0

More entries:
Data request: Given the compound `Cc1ccccc1COc1cc(-n2cnc3cc(Cl)ccc32)sc1C(N)=O` , write its reported %Inh.
Data returned: 18

Data request: Tell me its %Inh given `O=C(Nc1n[nH]c2cc(-c3ccccc3F)ccc12)C1CC1` as the entry.
Data returned: 2

Data request: Return value of %Inh for input `COc1ccc(-c2cc3c(C)nc(N)nc3n([C@H]3CC[C@H](OCCO)CC3)c2=O)cn1` , no commentary.
Data returned: 0

Data request: Supply recorded %Inh for `CN1C(=O)C(Nc2cc(Cl)c(O)c(Cl)c2)=C(c2ccc(Cl)cc2)C1=O` here.
Data returned: 22
